Parameter IC50: see the listing below.
# Test system: P-Akt (S473)
# assayProtocol: Cell based AlphaLISA assay, inhibition of P-Akt (S473) in MDA-MB-468 cells
# conditionContext: Homo sapiens, 4 h, 0.017-1,000 nM, two to four hours at 37° C., AlphaLisa SureFire Ultra, read-out: pIC50 for Inhibition of mTORC1 and mTORC2 Substrate Phosphorylation, p-AKT1/2/3-(S473) (converted)

For orientation, consider the following solved cases.
molecule	IC50
CO[C@H]1C[C@@H]2CC[C@@H](C)[C@@](O)(O2)C(=O)C(=O)N2CCCC[C@H]2C(=O)O[C@H]([C@H](C)C[C@@H]2CC[C@@H](O)[C@H](OC)C2)C[C@@H](O)[C@H](C)/C=C(\C)[C@@H](O)[C@@H](OC)C(=NOCC(=O)NCCOCCOCCOCCOCCOCCOCCOCCOCCC(=O)NCCS(=O)(=O)c2ccc(C(=O)N3CCOc4ccc(-c5ccc(N)nc5)cc4C3)c(C)c2F)[C@H](C)C[C@H](C)/C=C/C=C/C=C/1C [Example 46]	> 1000 nM
CO[C@H]1C[C@@H]2CC[C@@H](C)[C@@](O)(O2)C(=O)C(=O)N2CCCC[C@H]2C(=O)O[C@H]([C@H](C)C[C@@H]2CC[C@@H](O)[C@H](OC)C2)C[C@@H](O)[C@H](C)/C=C(\C)[C@@H](O)[C@@H](OC)C(=NOCC(=O)NCc2cnc(N3CCN(C(=O)CCOCCN4CCN(CCOCCC(=O)N5CCc6cc(Cn7nc(-c8ccc9oc(N)nc9c8)c8c(N)ncnc87)ccc6C5)CC4)CC3)nc2)[C@H](C)C[C@H](C)/C=C/C=C/C=C/1C [Example 40]	> 1000 nM
CO[C@H]1C[C@@H]2CC[C@@H](C)[C@@](O)(O2)C(=O)C(=O)N2CCCC[C@H]2C(=O)O[C@H]([C@H](C)C[C@@H]2CC[C@@H](O)[C@H](OC)C2)CC(=O)[C@H](C)/C=C(\C)[C@@H](O)[C@@H](OC)C(=O)[C@H](C)C[C@H](C)/C=C/C=C/C=C/1C [Rapamycin]	> 1000 nM
CO[C@H]1C[C@@H]2CC[C@@H](C)[C@@](O)(O2)C(=O)C(=O)N2CCCC[C@H]2C(=O)O[C@H]([C@H](C)C[C@@H]2CC[C@@H](O)[C@H](OC)C2)C[C@@H](O)[C@H](C)/C=C(\C)[C@@H](O)[C@@H](OC)C(=NOCC(=O)NCCOCCC(=O)NCc2cnc(N3CCN(C(=O)CCOCCN4CCN(c5ncc(C(=O)N6CCc7cc(Cn8nc(-c9ccc%10oc(N)nc%10c9)c9c(N)ncnc98)ccc7C6)cn5)CC4)CC3)nc2)[C@H](C)C[C@H](C)/C=C/C=C/C=C/1C [Example 44]	31.6 to 1000 nM

Could you now look at the following molecule, please?
What does the record list as IC50 for CO[C@H]1C[C@@H]2CC[C@@H](C)[C@@](O)(O2)C(=O)C(=O)N2CCCC[C@H]2C(=O)O[C@H]([C@H](C)C[C@@H]2CC[C@@H](O)[C@H](OC)C2)C[C@@H](O)[C@H](C)/C=C(\C)[C@@H](O)[C@@H](OC)C(=NOCC(=O)NCCOCCOCCOCCOCCOCCOCCC(=O)N2CCc3cc(Cn4nc(-c5ccc6oc(N)nc6c5)c5c(N)ncnc54)ccc3C2)[C@H](C)C[C@H](C)/C=C/C=C/C=C/1C [Example 5] ?
31.6 to 1000 nM
